- Measurement Target: T1, human CD3 on human T cells (human, UniProt P07766 23-207)
- T1 construct: whole, on cells; also called human primary T cells; NFAT-Jurkat cells
- T1 sequence (P07766 23-207): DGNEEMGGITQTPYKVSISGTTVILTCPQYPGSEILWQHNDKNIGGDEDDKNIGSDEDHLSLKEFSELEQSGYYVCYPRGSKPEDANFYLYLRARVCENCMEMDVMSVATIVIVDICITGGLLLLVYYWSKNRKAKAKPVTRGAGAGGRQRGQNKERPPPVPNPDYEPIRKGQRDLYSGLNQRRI
- Assay Summary: flow cytometry on human primary T cells
Readout: EC50 (nM)
Give bare numbers, in nM.

Short answer for murine monoclonal antibody AP831 (antibody, mouse IgG1, V domains shown) VH: QVQLQQSGPELVKPGTSVKMSCKASGYTFTNNYIHWVKEKPGEGLEWIGWIYPGDGTTKYNEKFKGKTTLASDKSSNTVYMFLSSLTSEDSAIYFCTRNNNYYFDYWGQGTTLTVSS VL: DIVMSQSPSSLAVSAGEKVTMNCKSSQSLFNSRTRKNYLAWYQQKPGQSPKLLIYWASTRESGVPDRFTGSGSGTDFTLTISSVQAEDLALYYCKQSFILRTFGGGTKLEIK : EC50 was 0.825
